// data source = patent US6602900B2

# Test system: Dog eye (miosis)
# TEST DETAILS: Miosis in dogs after topical dosing
# Assay type: in vivo
# EXPERIMENTAL PARAMETERS: 0.01%

{"CHEMICAL SMILES": "O=C(O)CCC/C=C\\C[C@@H]1[C@@H](/C=C/[C@@H](O)CCc2cc3ccccc3o2)[C@H](O)C[C@@H]1O", "Miosis": 0}
{"CHEMICAL SMILES": "Cc1cc(CC[C@H](O)/C=C/[C@@H]2[C@@H](C/C=C\\CCCC(=O)O)[C@@H](O)C[C@H]2O)cs1", "Miosis": "pinpt"}
{"CHEMICAL SMILES": "O=C(O)CCC/C=C\\C[C@@H]1[C@@H](/C=C/[C@@H](O)CCc2ccoc2)[C@H](O)C[C@@H]1O", "Miosis": "mild"}
{"CHEMICAL SMILES": "O=C(O)CCC/C=C\\C[C@@H]1[C@@H](/C=C/[C@@H](O)CCc2ccco2)[C@H](O)C[C@@H]1O", "Miosis": "mild"}

====

# Tested on: Dog eye (miosis)
# TEST DETAILS: Miosis in dogs after topical dosing
# Format: in vivo
# EXPERIMENTAL PARAMETERS: 0.1%
EXPERIMENTAL READOUT: Miosis

{"CHEMICAL SMILES": "NC(=O)CCC/C=C\\C[C@@H]1[C@@H](/C=C/[C@H](O)CCc2ccsc2)[C@H](O)C[C@@H]1O", "ASSAY TARGET": "Dog eye (miosis)", "OBSERVED VALUE": "pin"}
{"CHEMICAL SMILES": "O=C(O)CCC/C=C\\C[C@@H]1[C@@H](/C=C/[C@@H](O)CCc2nccs2)[C@H](O)C[C@@H]1O", "ASSAY TARGET": "Dog eye (miosis)", "OBSERVED VALUE": "pinpoint"}
{"CHEMICAL SMILES": "NC(=O)CCC/C=C\\C[C@@H]1[C@@H](/C=C/[C@@H](O)CCc2cc(Cl)sc2Cl)[C@H](O)C[C@@H]1O", "ASSAY TARGET": "Dog eye (miosis)", "OBSERVED VALUE": "pinpoint"}
{"CHEMICAL SMILES": "O=C(O)CCC/C=C\\C[C@@H]1[C@@H](/C=C/[C@@H](O)CCc2cc3ccccc3o2)[C@H](O)C[C@@H]1O", "ASSAY TARGET": "Dog eye (miosis)", "OBSERVED VALUE": 0}

====

Parameter: EC50. Scope: all listed entries.
# ASSAY TARGET: EP1 receptor (Cavia porcellus, UniProt A0A286XHJ6)
# Sequence (A0A286XHJ6 1-405): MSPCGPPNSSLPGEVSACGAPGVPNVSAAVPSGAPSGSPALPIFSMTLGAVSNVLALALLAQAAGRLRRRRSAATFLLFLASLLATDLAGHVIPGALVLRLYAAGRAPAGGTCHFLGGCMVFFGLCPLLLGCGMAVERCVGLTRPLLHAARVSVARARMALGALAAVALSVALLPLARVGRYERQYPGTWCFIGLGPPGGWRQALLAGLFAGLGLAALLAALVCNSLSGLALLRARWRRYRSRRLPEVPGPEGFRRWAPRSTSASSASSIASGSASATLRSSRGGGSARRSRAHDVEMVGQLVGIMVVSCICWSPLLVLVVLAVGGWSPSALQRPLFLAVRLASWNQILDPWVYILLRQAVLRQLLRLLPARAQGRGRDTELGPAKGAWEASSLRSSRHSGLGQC
# TEST DETAILS: EP1-activity: contraction of the longitudinal smooth muscle of the isolated guinea pig ileum
# Type: cell-based
EXPERIMENTAL READOUT: EC50

{"CHEMICAL SMILES": "O=C(O)CCC/C=C\\C[C@@H]1[C@@H](/C=C/[C@@H](O)CCc2cccs2)[C@H](O)C[C@@H]1O", "ASSAY TARGET": "EP1 receptor (Cavia porcellus, UniProt A0A286XHJ6)", "OBSERVED VALUE": "> 10000 nM"}
{"CHEMICAL SMILES": "O=C(O)CCC/C=C\\C[C@@H]1[C@@H](CC[C@@H](O)CCc2ccsc2)[C@H](O)C[C@@H]1O", "ASSAY TARGET": "EP1 receptor (Cavia porcellus, UniProt A0A286XHJ6)", "OBSERVED VALUE": "> 10000 nM"}
{"CHEMICAL SMILES": "Cc1cc(CC[C@H](O)/C=C/[C@@H]2[C@@H](C/C=C\\CCCC(=O)O)[C@@H](O)C[C@H]2O)cs1", "ASSAY TARGET": "EP1 receptor (Cavia porcellus, UniProt A0A286XHJ6)", "OBSERVED VALUE": "> 10000 nM"}
{"CHEMICAL SMILES": "O=C(O)CCC/C=C\\C[C@@H]1[C@@H](/C=C/[C@@H](O)CCc2ccc(Br)s2)[C@H](O)C[C@@H]1O", "ASSAY TARGET": "EP1 receptor (Cavia porcellus, UniProt A0A286XHJ6)", "OBSERVED VALUE": "> 10000 nM"}
{"CHEMICAL SMILES": "O=C(O)CCC/C=C\\C[C@@H]1[C@@H](/C=C/[C@@H](O)CCc2ccsc2Cl)[C@H](O)C[C@@H]1O", "ASSAY TARGET": "EP1 receptor (Cavia porcellus, UniProt A0A286XHJ6)", "OBSERVED VALUE": "> 10000 nM"}
{"CHEMICAL SMILES": "O=C(O)CCC/C=C\\C[C@@H]1[C@@H](/C=C/[C@@H](O)CCc2sccc2Cl)[C@H](O)C[C@@H]1O", "ASSAY TARGET": "EP1 receptor (Cavia porcellus, UniProt A0A286XHJ6)", "OBSERVED VALUE": "> 10000 nM"}
{"CHEMICAL SMILES": "Cc1sccc1CC[C@H](O)/C=C/[C@@H]1[C@@H](C/C=C\\CCCC(=O)O)[C@@H](O)C[C@H]1O", "ASSAY TARGET": "EP1 receptor (Cavia porcellus, UniProt A0A286XHJ6)", "OBSERVED VALUE": "> 10000 nM"}
{"CHEMICAL SMILES": "CO[C@H](/C=C/[C@@H]1[C@@H](C/C=C\\CCCC(=O)O)[C@@H](O)C[C@H]1O)CCc1ccsc1", "ASSAY TARGET": "EP1 receptor (Cavia porcellus, UniProt A0A286XHJ6)", "OBSERVED VALUE": "> 10000 nM"}
